MEASURED TARGET: human CD33 P55A (human, UniProt P20138 18-364)
Sequence (P20138 18-364 P55A limits assumed): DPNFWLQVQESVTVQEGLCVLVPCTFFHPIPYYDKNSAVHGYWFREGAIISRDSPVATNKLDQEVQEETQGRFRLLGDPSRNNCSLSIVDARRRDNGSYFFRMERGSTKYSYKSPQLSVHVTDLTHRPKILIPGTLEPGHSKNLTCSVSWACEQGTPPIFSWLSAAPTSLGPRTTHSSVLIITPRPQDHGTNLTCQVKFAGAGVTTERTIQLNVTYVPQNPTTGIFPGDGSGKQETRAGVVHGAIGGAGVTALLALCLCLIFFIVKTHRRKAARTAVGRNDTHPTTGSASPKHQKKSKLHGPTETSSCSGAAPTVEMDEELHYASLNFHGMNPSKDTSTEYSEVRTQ
TEST: alanine scan, flow cytometry;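 note: HEK293-T cells transiently expressing single-residue alanine mutants of CD33 (alanine swapped to serine), antibody binding read by fluorescence in duplicate, background-subtracted, expressed relative to wild-type CD33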
MEASURE NAME: Mean % WT Binding (% WT)
Numbers only, in % WT.

Refmab #3 (antibody, V domains shown, Full-length format is human IgG1 Fc silent (PG-LALA); The alanine scan used IgG or Fab) VH: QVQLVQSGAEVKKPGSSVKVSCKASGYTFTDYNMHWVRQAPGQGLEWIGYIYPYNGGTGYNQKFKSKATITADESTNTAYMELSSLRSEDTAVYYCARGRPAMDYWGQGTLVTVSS VL: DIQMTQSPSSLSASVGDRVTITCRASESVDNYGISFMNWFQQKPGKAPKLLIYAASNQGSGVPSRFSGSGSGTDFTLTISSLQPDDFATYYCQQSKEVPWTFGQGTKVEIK = 142
Refmab #1 (antibody, V domains shown, Full-length format is human IgG1 (Absolute Antibody Ab00283-10.0); The alanine scan used IgG or Fab; also called hP67.6) VH: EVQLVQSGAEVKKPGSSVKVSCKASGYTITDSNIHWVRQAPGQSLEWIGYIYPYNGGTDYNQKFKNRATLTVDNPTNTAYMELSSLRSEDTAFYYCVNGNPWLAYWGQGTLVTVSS VL: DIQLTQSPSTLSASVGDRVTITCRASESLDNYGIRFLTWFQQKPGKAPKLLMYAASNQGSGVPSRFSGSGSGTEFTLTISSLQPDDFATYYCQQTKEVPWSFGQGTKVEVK = 98.8

For the binder Refmab #4 (antibody, V domains shown, Full-length format is human IgG1 Fc silent (PG-LALA); The alanine scan used IgG or Fab) VH: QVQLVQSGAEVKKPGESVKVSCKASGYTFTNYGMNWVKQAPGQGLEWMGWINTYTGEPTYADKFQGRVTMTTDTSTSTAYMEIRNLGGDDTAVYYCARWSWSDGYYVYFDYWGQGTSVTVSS VL: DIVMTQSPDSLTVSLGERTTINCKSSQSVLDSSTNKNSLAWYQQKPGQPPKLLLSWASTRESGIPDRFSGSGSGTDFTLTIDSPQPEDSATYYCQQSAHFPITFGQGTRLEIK , give its reported Mean % WT Binding.
95.4
